Data provenance is patent US9776979B2.

IC50 by entry:
# target: EBI2 (Homo sapiens, UniProt P32249)
# Sequence (P32249 whole entry): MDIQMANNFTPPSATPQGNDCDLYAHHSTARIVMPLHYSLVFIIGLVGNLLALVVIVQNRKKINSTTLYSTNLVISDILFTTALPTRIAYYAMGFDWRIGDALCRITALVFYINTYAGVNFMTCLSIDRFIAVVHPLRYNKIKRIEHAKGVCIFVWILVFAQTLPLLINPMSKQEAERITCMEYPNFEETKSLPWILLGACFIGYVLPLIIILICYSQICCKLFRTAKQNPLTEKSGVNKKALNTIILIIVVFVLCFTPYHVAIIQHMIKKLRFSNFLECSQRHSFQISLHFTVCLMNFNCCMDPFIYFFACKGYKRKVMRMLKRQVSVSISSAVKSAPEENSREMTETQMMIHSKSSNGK
# experiment_summary: Cell-based luminescent assay (EBI2 modulation)
# experimental_conditions: cell-based luminescence; 7a,25-OHC final assay concentration 80 nM; 60 minutes incubation; read-out: IC50
outcome_measure: IC50

[[record]]
compound = "O=C(c1ccc2ccccc2n1)N1CCN(C(c2ccccc2)c2ccccc2)CC1 [Compound C351]"
outcome_measure = "IC50"
result = "< 100 nM"

[[record]]
compound = "O=C(c1ccc(C(F)(F)F)cc1)N1CCN(C(=O)c2cc3cc(Br)ccc3[nH]2)CC1 [Compound C140]"
outcome_measure = "IC50"
result = "< 100 nM"

[[record]]
compound = "N#Cc1cccc(C(=O)N2CCN(C(=O)c3cc4cc(Cl)ccc4[nH]3)CC2)c1 [Compound C395]"
outcome_measure = "IC50"
result = "< 100 nM"

[[record]]
compound = "Cc1cc2[nH]c(C(=O)N3CCN(C(c4ccccc4)c4ccccc4)CC3)cc2s1 [Compound C228]"
outcome_measure = "IC50"
result = "< 100 nM"

[[record]]
compound = "CCN1CCN(C(=O)/C=C/c2ccc(Br)cc2)CC1 [Compound C222]"
outcome_measure = "IC50"
result = "< 100 nM"

[[record]]
compound = "COc1cc(CN2CCN(C(=O)/C=C/c3ccc(Br)cc3)CC2)cc(OC)c1 [Compound C72]"
outcome_measure = "IC50"
result = "< 100 nM"

[[record]]
compound = "O=C(C#Cc1ccccc1C(F)(F)F)N1CCN(C(=O)c2ccc(Cl)cc2)CC1 [Compound C309]"
outcome_measure = "IC50"
result = "< 100 nM"

[[record]]
compound = "O=C(C#Cc1ccc(Br)cc1)N1CCN(C(=O)c2ccc(B(O)O)cc2)CC1 [Compound C160]"
outcome_measure = "IC50"
result = "< 100 nM"

[[record]]
compound = "O=C(O)c1ccc(CN2CCN(C(=O)c3cc4cc(Cl)ccc4[nH]3)CC2)cc1 [Compound C177]"
outcome_measure = "IC50"
result = "500 to 5000 nM"

[[record]]
compound = "O=C(/C=C/c1cc(Br)ccc1F)N1CCN(C(c2ccccc2)c2ccccc2)CC1 [Compound C441]"
outcome_measure = "IC50"
result = "100 to 500 nM"

[[record]]
compound = "Cc1ccc(C#CC(=O)N2CCN(C(c3ccccc3)c3ccccc3)CC2)cc1 [Compound C58]"
outcome_measure = "IC50"
result = "< 100 nM"

[[record]]
compound = "O=C(/C=C/c1ccc(Br)cc1)N1CCN(Cc2ccc(Cl)cc2C(F)(F)F)CC1 [Compound C91]"
outcome_measure = "IC50"
result = "< 100 nM"

[[record]]
compound = "O=C(c1ccc(Br)cc1)N1CCN(C(=O)c2ccc3ccccc3c2)CC1 [Compound C381]"
outcome_measure = "IC50"
result = "< 100 nM"

[[record]]
compound = "Cc1ccc(C#CC(=O)N2CCN(Cc3ccc(Cl)cc3)CC2)cc1 [Compound C245]"
outcome_measure = "IC50"
result = "< 100 nM"

[[record]]
compound = "O=C(/C=C/c1ccc(Cl)c(Cl)c1)N1CCN(C(c2ccccc2)c2ccccc2)CC1 [Compound C5]"
outcome_measure = "IC50"
result = "< 100 nM"

[[record]]
compound = "O=C(/C=C/c1ccc(F)cc1)N1CCN(S(=O)(=O)c2cccc(F)c2)CC1 [Compound C212]"
outcome_measure = "IC50"
result = "< 100 nM"

[[record]]
compound = "O=C(c1ccc(C(F)(F)F)c(F)c1)N1CCN(C(=O)c2cc3cc(C(F)(F)F)ccc3[nH]2)CC1 [Compound C200]"
outcome_measure = "IC50"
result = "< 100 nM"

[[record]]
compound = "O=C(c1ccc(B(O)O)cc1)N1CCN(C(=O)c2cc3cc(Cl)ccc3[nH]2)CC1 [Compound C409]"
outcome_measure = "IC50"
result = "100 to 500 nM"

[[record]]
compound = "O=C(C#Cc1cccc(Cl)c1)N1CCN(Cc2ccc(C(F)(F)F)cc2)CC1 [Compound C353]"
outcome_measure = "IC50"
result = "< 100 nM"

[[record]]
compound = "O=C(C#Cc1ccc(F)cc1)N1CCN(C(=O)c2ccc(C(F)(F)F)cc2)CC1 [Compound C253]"
outcome_measure = "IC50"
result = "< 100 nM"

[[record]]
compound = "O=C(C#Cc1ccc(C(F)(F)F)cc1)N1CCN(C(c2ccccc2)c2ccccc2)CC1 [Compound C66]"
outcome_measure = "IC50"
result = "< 100 nM"

[[record]]
compound = "O=C(c1cc2ccc(Br)cc2[nH]1)N1CCN(Cc2ccc(Br)cc2)CC1 [Compound C180]"
outcome_measure = "IC50"
result = "500 to 5000 nM"

[[record]]
compound = "O=C(/C=C/c1ccccc1)N1CCN(Cc2ccc(F)cc2)CC1 [Compound C248]"
outcome_measure = "IC50"
result = "< 100 nM"

[[record]]
compound = "Cn1c(C(=O)N2CCN(C(c3ccccc3)c3ccccc3)CC2)cc2ccsc21 [Compound C173]"
outcome_measure = "IC50"
result = "500 to 5000 nM"

[[record]]
compound = "NC(=O)c1ccc(C(=O)N2CCN(C(=O)c3cc4cc(Cl)ccc4[nH]3)CC2)cc1 [Compound C282]"
outcome_measure = "IC50"
result = "100 to 500 nM"

[[record]]
compound = "O=C(C#Cc1cccc(Cl)c1Cl)N1CCN(Cc2ccc(F)cc2C(F)(F)F)CC1 [Compound C141]"
outcome_measure = "IC50"
result = "< 100 nM"

[[record]]
compound = "O=C(c1ccc(-c2nnn[nH]2)cc1)N1CCN(C(=O)c2cc3ccc(Br)cc3[nH]2)CC1 [Compound C310]"
outcome_measure = "IC50"
result = "< 100 nM"

[[record]]
compound = "O=C(C#Cc1ccccc1)N1CCN(C(=O)c2ccc(F)cc2)CC1 [Compound C116]"
outcome_measure = "IC50"
result = "< 100 nM"

[[record]]
compound = "O=C(c1cc2cc(Cl)ccc2[nH]1)N1CCN(Cc2ccc(Cl)cc2C(F)(F)F)CC1 [Compound C428]"
outcome_measure = "IC50"
result = "100 to 500 nM"

[[record]]
compound = "CCC(=O)N1CCN(C(=O)/C=C/c2ccc(Br)cc2)CC1 [Compound C145]"
outcome_measure = "IC50"
result = "< 100 nM"

[[record]]
compound = "O=C(c1cc2cc(Br)ccc2[nH]1)N1CCN(Cc2ccc(C(F)(F)F)cc2)CC1 [Compound C371]"
outcome_measure = "IC50"
result = "< 100 nM"

[[record]]
compound = "Cc1ccc2[nH]c(C(=O)N3CCN(Cc4ccc(Cl)cc4)CC3)cc2c1 [Compound C339]"
outcome_measure = "IC50"
result = "< 100 nM"

[[record]]
compound = "O=C(C=Cc1ccc2c(c1)OCO2)N1CCN(C(=O)c2ccc(-c3nnn[nH]3)cc2)CC1 [Compound C457]"
outcome_measure = "IC50"
result = "100 to 500 nM"

